Listing of pKi toward Protease (Human immunodeficiency virus 1), each taken from a published source.
Lab note: report pKi as minus log10 of the concentration in molar units, number only.

Below, 5 compounds whose answers are already recorded.
compound | val
N#Cc1cc(CN2C(=O)N(Cc3ccccc3)C(Cc3ccccc3)C(O)C2CCc2ccccc2)ccc1F (configuration not stated) | 7.48
N/C(=N/O)c1cccc(CN2C(=O)NC(CCc3ccccc3)C(O)C2Cc2ccccc2)c1 (configuration not stated) | 9.62
C[C@@H]1Cc2ccccc2S(=O)(=O)N(CC(O)C(Cc2ccccc2)NC(=O)OC(C)(C)C)C1 (single isomer, unassigned) | 6.00
CC(C)CN(C[C@@H](O)[C@H](Cc1ccccc1)NC(=O)[C@@H]1CN(c2ccccc2)C(=O)O1)S(=O)(=O)c1ccc(N)cc1 | 9.28
COC(=O)N[C@H](C(=O)NN(CCC[C@@](O)(Cc1ccccc1)C(=O)N[C@H]1c2ccccc2C[C@H]1O)Cc1ccc(C#N)cc1)C(C)(C)C | 8.54

Ask | Enter pKi (test system Protease (Human immunodeficiency virus 1)) for COc1ccc(S(=O)(=O)N(CC(C)C)C[C@@H](O)[C@H](Cc2cccc(-c3cccc(OC)c3)c2)NC(=O)O[C@H]2CCOC2)cc1
Reply | 8.82

Ask | Enter pKi (test system Protease (Human immunodeficiency virus 1)) for CNC(=O)[C@H](C)NC(=O)[C@@](O)(CCCN(Cc1ccc(Br)cc1)NC(=O)[C@@H](NC(=O)OC)C(C)(C)C)Cc1ccccc1
Reply | 7.74
